Target: alkaline phosphatase, placental type (Homo sapiens)
Experiment: PLAP enzyme inhibitors, dose response, selectivity assay for mouse IAP inhibitor project, biochemical, uHTS hits (AID 488879)
Settings: purified human placental alkaline phosphatase, enzymatic inhibition
Active and inactive are the calls of the source. No rule for the calls is given here.
Labels: active, inactive

1) C=CCn1cc(CN2CCC(C(=O)Nc3cccc(-c4cccc(Cl)c4)c3)CC2)c(C)n1	active
2) NS(=O)(=O)c1cc(C(=O)N=Nc2c(O)[nH]c3ccccc23)ccc1Cl	inactive
3) N#Cc1c(SCC(=O)Nc2nccs2)sc2c(O)cc(=O)[nH]c12	inactive
4) C#CCOCCOCCOCCNc1nc(N2CCN(C(=O)CCCCCCCCCCNC(=O)Cn3cc(C[C@@H](C)O)nn3)CC2)nc(N2CCN(C(=O)CCCCCCCCCCNC(=O)[C@@H](CCSC)n3cc(CCO)nn3)CC2)n1	active
5) COCc1ccc(CN2CCC(C(=O)Nc3cccc(-c4cccc(Cl)c4)c3)CC2)o1	inactive
6) C#CCOCCOCCOCCNc1nc(N2CCN(C(=O)CCCCCCCCCCNC(=O)[C@@H](CCSC)n3cc(CCO)nn3)CC2)nc(N2CCN(C(=O)CCCCCCCCCCNC(=O)[C@H]([C@@H](C)CC)n3cc(CCCCN=C(N)N)nn3)CC2)n1	inactive
7) COc1cc(/C=C/[N+](=O)[O-])ccc1OC(=O)c1cc2ccccc2oc1=O	inactive
8) O=C(NNC(=O)c1cc2cc(Br)ccc2oc1=O)c1ccc(O)cc1O	inactive
9) NS(=O)(=O)c1cccc(NC(=O)CSc2nnc(-c3ccncc3)n2C2CC2)c1	inactive
10) C#CCOCCOCCOCCNc1nc(N2CCN(C(=O)CCCCCCCCCCNC(=O)[C@H](CO)n3cc(CCCSC)nn3)CC2)nc(N2CCN(C(=O)CCCCCCCCCCNC(=O)[C@H](CCCN=C(N)N)n3cc(C[C@@H](C)CC)nn3)CC2)n1	inactive
11) O=C(/C=C/c1ccco1)NC(=S)Nc1ccc(C(=O)O)cc1	inactive
12) COc1ccc(C(=O)OCC(=O)Nc2ncc([N+](=O)[O-])s2)cc1OC	inactive
13) O=C(CSc1nc2nn(-c3ccccc3)c(=O)c-2c2n1CCCCC2)c1ccc(O)c(O)c1	inactive
14) Cc1cc(C)cc(NC(=S)NC2CC3CCCC(C2)N3Cc2cccs2)c1 (configuration not stated)	active
15) O=C(CSc1ncn[nH]1)CSc1ncn[nH]1	active
16) OCCCN1c2ccccc2Nc2nnc(-c3ccccc3)cc21	inactive
17) COc1ccc(C2CC(c3ccccc3Cl)=NN2c2ccc(S(N)(=O)=O)cc2)cc1 (configuration not stated)	inactive
18) NS(=O)(=O)c1ccc2c(c1)oc(=O)c1cc(S(N)(=O)=O)ccc12	inactive
19) COc1ccc(CN2C3CCCC2CC(NC(=O)Nc2cccc(C)c2)C3)cc1 (configuration not stated)	active
20) CCCCCOc1ccc(C(=O)CCC(=O)NNC(=O)c2ccncc2)cc1	inactive
21) Nc1nnc(CC(=O)N/N=C/c2cc([N+](=O)[O-])cc(Br)c2O)s1	inactive
22) O=C(CCNS(=O)(=O)c1ccc2[nH]c(=O)oc2c1)Nc1ccccc1	active
23) NS(=O)(=O)c1ccc(-c2ccc(/C=C3\NC(=S)NC3=O)o2)cc1	inactive
24) O=C(NN1C(=O)/C(=C/c2ccc(O)c(O)c2)SC1=S)c1ccccc1	inactive
25) C#CCOCCOCCOCCNc1nc(N2CCN(C(=O)CCCCCCCCCCNC(=O)Cn3cc(CCCCCN)nn3)CC2)nc(N2CCN(C(=O)CCCCCCCCCCNC(=O)[C@@H](CCSC)n3cc(CCO)nn3)CC2)n1	inactive
26) Cc1ccc(N/C(N)=N/c2nc(C)cc(N3CCCCC3)n2)c(C)c1	active
27) O=C(Nc1cccc(-c2cccc(Cl)c2)c1)C1CCN(C2CCC2)CC1	active
28) COc1cc(OC)c2c(c1O)OC(c1ccccc1)CC2=O (configuration not stated)	inactive
29) CCn1nc(C)c(CN2CCC(C(=O)Nc3cccc(-c4cccc(Cl)c4)c3)CC2)c1C	inactive
30) COC(=O)c1ccc(NS(=O)(=O)c2ccc3[nH]c(=O)oc3c2)cc1	inactive
31) O=C(COC(=O)c1ccccc1)Nc1ncc([N+](=O)[O-])s1	active
32) S=C(NCc1ccc(Cl)cc1Cl)NC1CCCCC1	inactive
33) CCN(C(=O)C(C)N1C(=O)/C(=C/c2ccco2)SC1=S)C1CCS(=O)(=O)C1 (configuration not stated)	active
34) NC1=NC(=O)/C(=C\c2ccco2)S1	active
35) Cc1ccc(Cl)c2c1=NC(=O)C=2c1[nH]c(=S)[nH]c1O	inactive
36) O=C(c1c(O)cc(O)cc1O)C1c2c(cc(O)c3c2O[C@H](c2ccc(O)cc2)[C@@H](O)C3)OC1c1ccc(O)cc1 (some centres not stated)	active
37) N#Cc1c(SCC(=O)Nc2nc3ccccc3s2)sc2c(O)cc(=O)[nH]c12	inactive
